Just for reference, patent US20090221653A1 is where these values come from.

IC50 for assorted compounds
- ASSAYED TARGET: recombinant human α1D receptor (Homo sapiens)
- Construct: expressed in transfected cells; host or cells: HEK293
- Sequence (P25100 1-572): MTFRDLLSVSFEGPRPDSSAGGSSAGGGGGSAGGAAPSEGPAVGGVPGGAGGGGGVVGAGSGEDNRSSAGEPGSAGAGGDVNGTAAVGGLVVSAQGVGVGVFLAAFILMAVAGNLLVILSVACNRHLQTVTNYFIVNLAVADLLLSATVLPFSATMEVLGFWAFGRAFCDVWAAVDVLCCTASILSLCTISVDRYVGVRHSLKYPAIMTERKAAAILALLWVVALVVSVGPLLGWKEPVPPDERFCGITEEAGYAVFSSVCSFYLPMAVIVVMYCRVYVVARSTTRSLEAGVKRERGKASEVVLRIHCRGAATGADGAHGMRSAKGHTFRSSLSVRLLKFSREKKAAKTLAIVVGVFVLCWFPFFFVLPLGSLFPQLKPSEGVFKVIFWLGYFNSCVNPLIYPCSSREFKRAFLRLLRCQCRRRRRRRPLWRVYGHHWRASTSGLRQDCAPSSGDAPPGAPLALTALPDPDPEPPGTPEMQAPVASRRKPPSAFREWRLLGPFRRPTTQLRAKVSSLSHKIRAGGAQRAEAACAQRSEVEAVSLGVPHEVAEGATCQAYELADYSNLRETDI
- ASSAY: Adrenergic α1D selectivity assay, inhibition of [3H]-prazosin binding
- MEASUREMENT PARAMETERS: HEK293 membranes, [3H]-prazosin 0.3 nM; read-out: α1 bind pIC50 (converted)
Where a name gives a salt, the structure may show the parent alone.
Supply the numeric figure in nM, leaving out any unit text.

For the compound O=c1[nH]c2c(O)ccc([C@@H](O)CNCCCS(=O)(=O)CCOCCc3cccc4ccccc34)c2s1 [Example 2, trifluoroacetate] , report IC50. 1000

For the compound O=c1[nH]c2c(O)ccc([C@@H](O)CNCCCSCCNCCc3cccc(Cl)c3)c2s1 , report IC50. 39.8

For the compound O=c1[nH]c2c(O)ccc([C@@H](O)CNCCSCCCNCCc3cccc(C(F)(F)F)c3)c2s1 , report IC50. 251

For the compound O=c1[nH]c2c(O)ccc([C@@H](O)CNCCS(=O)(=O)CCCNCCc3cccc(Cl)c3)c2s1 [Example 42, dihydrochloride] , report IC50. 126

For the compound Cl.O=c1[nH]c2c(O)ccc([C@@H](O)CNCCSCCCNCCc3ccccc3)c2s1 [Example 11, hydrochloride] , report IC50. 126

----------
log10(EC50) for assorted compounds
- ASSAYED TARGET: Adrenergic β2 (Homo sapiens)
- Construct: endogenous in cells; host or cells: H292 cells
- Sequence (P07550 whole entry): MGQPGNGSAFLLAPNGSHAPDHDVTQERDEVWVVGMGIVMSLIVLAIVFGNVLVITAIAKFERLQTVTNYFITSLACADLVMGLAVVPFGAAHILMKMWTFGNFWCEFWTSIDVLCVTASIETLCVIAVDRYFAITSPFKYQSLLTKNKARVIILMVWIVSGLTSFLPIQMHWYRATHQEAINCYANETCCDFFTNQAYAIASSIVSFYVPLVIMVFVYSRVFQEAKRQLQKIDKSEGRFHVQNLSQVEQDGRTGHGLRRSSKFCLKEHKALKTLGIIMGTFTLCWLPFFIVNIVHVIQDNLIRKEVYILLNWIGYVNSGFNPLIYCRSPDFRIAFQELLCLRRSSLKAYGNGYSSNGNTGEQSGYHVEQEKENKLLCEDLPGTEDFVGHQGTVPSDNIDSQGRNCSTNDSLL
- ASSAY: Alternative Adrenergic β2 Mediated cAMP Production in H292 cells (AlphaScreen cAMP detection)
- Format: cell-based
- MEASUREMENT PARAMETERS: cAMP, test compounds incubated 60 minutes, 300 μM rolipram, read-out: β2 pEC50 (converted)
Counter-ions that a name gives are not always drawn.
Reminder: these figures are log10 of reported EC50, in nM before transformation.

compound=O=c1[nH]c2c(O)ccc([C@@H](O)CNCCCSCCNCCc3ccccc3Cl)c2s1 assayed_target="Adrenergic β2 (Homo sapiens)" reading=-0.40
compound="O=c1[nH]c2c(O)ccc([C@@H](O)CNCCCSCCOCCc3cccc4ccccc34)c2s1 [Example 1, trifluoroacetate]" assayed_target="Adrenergic β2 (Homo sapiens)" reading=-1.00
compound="CN(CCCSCCNC[C@H](O)c1ccc(O)c2[nH]c(=O)sc12)CCc1ccccc1 [Example 12, trifluoroacetate]" assayed_target="Adrenergic β2 (Homo sapiens)" reading=0.50
compound="C[C@H](CNCCCSCCNC[C@H](O)c1ccc(O)c2[nH]c(=O)sc12)c1ccccc1 [Example 48, dihydrochloride]" assayed_target="Adrenergic β2 (Homo sapiens)" reading=0.10
compound="C[C@@H](CNCCCSCCNC[C@H](O)c1ccc(O)c2[nH]c(=O)sc12)c1ccccc1 [Example 46, dihydrochloride]" assayed_target="Adrenergic β2 (Homo sapiens)" reading=-0.20

For the compound O=c1[nH]c2c(O)ccc([C@@H](O)CNCCCOCCOCCc3ccccc3)c2s1 [Example 3, trifluoroacetate] , report log10(EC50). -0.90

For the compound CCc1ccc(CCNCCCSCCNC[C@H](O)c2ccc(O)c3[nH]c(=O)sc23)cc1 , report log10(EC50). 0.60

For the compound O=c1[nH]c2c(O)ccc([C@@H](O)CNCCSCCCNCCc3cccc(Cl)c3Cl)c2s1 [Example 38, dihydrochloride] , report log10(EC50). 0.20

For the compound N[C@@H](COCCCSCCNC[C@H](O)c1ccc(O)c2[nH]c(=O)sc12)c1ccccc1 , report log10(EC50). -0.40

For the compound Cl.O=c1[nH]c2c(O)ccc([C@@H](O)CNCCSCCOCCc3cccc4ccccc34)c2s1 [Example 4, hydrochloride] , report log10(EC50). -1.00
